# Lookup of reported IC50 keyed by entry
target: menin/MLL (terbium chelate-labeled menin, FITC-MBM1 peptide) (Homo sapiens (Human), UniProt O00255); test: Menin/MLL homogenous time-resolved fluorescence (HTRF) assay; type: binding; conditions: HTRF-30 min incubation IC50, 30 min incubation;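 note: IC50 from percent inhibition of HTRF signal, normalized between wells without competitor and wells with a saturating competitor that displaces FITC-MBM1 from His-tagged menin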
Sequence (O00255 other isoform, or with tags, fused parts or gaps): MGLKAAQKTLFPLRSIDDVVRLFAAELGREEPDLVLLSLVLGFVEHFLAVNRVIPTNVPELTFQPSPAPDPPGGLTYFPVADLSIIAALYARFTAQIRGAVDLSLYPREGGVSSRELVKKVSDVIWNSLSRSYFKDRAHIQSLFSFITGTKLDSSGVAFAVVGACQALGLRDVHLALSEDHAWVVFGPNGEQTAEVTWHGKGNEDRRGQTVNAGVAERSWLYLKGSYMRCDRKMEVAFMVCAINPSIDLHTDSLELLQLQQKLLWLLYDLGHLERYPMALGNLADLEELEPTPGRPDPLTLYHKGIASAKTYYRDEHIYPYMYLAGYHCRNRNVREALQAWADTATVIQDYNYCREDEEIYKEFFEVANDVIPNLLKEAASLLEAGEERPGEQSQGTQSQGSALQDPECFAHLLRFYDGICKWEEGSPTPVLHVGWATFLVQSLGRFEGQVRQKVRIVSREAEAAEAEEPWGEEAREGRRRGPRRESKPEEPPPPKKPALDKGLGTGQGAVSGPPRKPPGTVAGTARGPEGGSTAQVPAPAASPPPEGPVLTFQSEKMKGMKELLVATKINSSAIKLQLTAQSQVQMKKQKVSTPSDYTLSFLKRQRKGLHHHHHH
Counter-ions that a name gives are not always drawn.
endpoint_name: IC50 (nM)

>>> recorded_value("CCN(C(=O)c1cc(F)ccc1Oc1nncnc1N1CCC2(C1)CN([C@@H](C[C@H](CN(C)C)OC)C(C)C)C2)C(C)C (single isomer, unassigned) [Compound 378]")
27.3
>>> recorded_value("CCN(C(=O)c1cc(F)ccc1Oc1nncnc1N1CCC2(C1)CN([C@H](CCCN(C)CC(C)OC)C(C)C)C2)C(C)C (stereo partly drawn) [Compound 252, oxalate]")
0.065
